experimental-target: T1, 4H2944-bA
T1 chain: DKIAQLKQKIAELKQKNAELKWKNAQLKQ
experimental-details: two-hybrid library CCNG1;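 also: natural log of median RNA to DNA barcode read ratio; higher means stronger binding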
measurement-label: interaction score

Please review the following examples before continuing.
# binder, interaction score
records = [
    ("DKIAQLKQKIAELKQKNAELKWEIAQLEQ [4H2937-bA]", -0.548),
    ("DEIAQLEQEIAELEQENAELEWENAQLEQ [4H19-bA]", 2.54),
    ("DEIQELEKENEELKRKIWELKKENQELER [4H235-bH]", -0.835),
]

(A) DKIAQLKQENAELEQEIAELEWKNAQLKQ [4H2696-bA]
(B) DKIAQLKQKIAELKQKNAELKWKNAQLKQ [4H2944-bA]
(C) DKIAQLKQKIAELKQEIAELEWENAQLEQ [4H2883-bA]
I would appreciate it if you could sort these 3 binders by interaction score, starting from the smallest number. In plain terms: list the labels in the order you were asked to.
B, A, C
(B: -0.797, A: 0.173, C: 1.15)
